These measurements were taken from ChEMBL document CHEMBL1121654.

# METHOD: Partition coefficient (logP)
# Type: physicochemical
# TEST SETTINGS: octanol/water
Could you label it fulfilled if measured logP is 2 or higher, and not fulfilled otherwise?

{"COMPOUND": "CCN(CC)C(C)C(=O)Nc1c(C)cccc1C (centres undefined)", "ASSIGNED CLASS": "fulfilled"}
{"COMPOUND": "CCN(CC)CCCCC(=O)Nc1c(C)cccc1C", "ASSIGNED CLASS": "fulfilled"}
{"COMPOUND": "CCN(CC)C(C)CCCC(=O)Nc1c(C)cccc1C (centres undefined)", "ASSIGNED CLASS": "fulfilled"}
{"COMPOUND": "Cc1cccc(C)c1NC(=O)CCCC(C)N (centres undefined)", "ASSIGNED CLASS": "not fulfilled"}
{"COMPOUND": "Cc1cccc(C)c1NC(=O)CCCN", "ASSIGNED CLASS": "not fulfilled"}
{"COMPOUND": "Cc1cccc(C)c1NC(=O)CC(C)N (centres undefined)", "ASSIGNED CLASS": "not fulfilled"}
{"COMPOUND": "Cc1cccc(C)c1NC(=O)C(C)N(C)C (centres undefined)", "ASSIGNED CLASS": "not fulfilled"}
{"COMPOUND": "CCN(CC)CCCCCC(=O)Nc1c(C)cccc1C", "ASSIGNED CLASS": "fulfilled"}
{"COMPOUND": "Cc1cccc(C)c1NC(=O)CN [GLYCINEXYLIDIDE]", "ASSIGNED CLASS": "not fulfilled"}
{"COMPOUND": "CCN(CC)CCCC(=O)Nc1c(C)cccc1C", "ASSIGNED CLASS": "fulfilled"}
{"COMPOUND": "Cc1cccc(C)c1NC(=O)CCCCN", "ASSIGNED CLASS": "not fulfilled"}
{"COMPOUND": "CCN(CC)CCCCCCC(=O)Nc1c(C)cccc1C", "ASSIGNED CLASS": "fulfilled"}
{"COMPOUND": "CCN(CC)C(C)CC(=O)Nc1c(C)cccc1C (centres undefined)", "ASSIGNED CLASS": "fulfilled"}
{"COMPOUND": "Cc1cccc(C)c1NC(=O)CCC(C)N (centres undefined)", "ASSIGNED CLASS": "not fulfilled"}
{"COMPOUND": "Cc1cccc(C)c1NC(=O)CCCCCN", "ASSIGNED CLASS": "not fulfilled"}
{"COMPOUND": "Cc1cccc(C)c1NC(=O)C(C)N (centres undefined) [TOCAINIDE]", "ASSIGNED CLASS": "not fulfilled"}
{"COMPOUND": "CCN(CC)C(C)CCC(=O)Nc1c(C)cccc1C (centres undefined)", "ASSIGNED CLASS": "fulfilled"}
{"COMPOUND": "Cc1cccc(C)c1NC(=O)CCN", "ASSIGNED CLASS": "not fulfilled"}
{"COMPOUND": "CCN(CC)CCC(=O)Nc1c(C)cccc1C", "ASSIGNED CLASS": "fulfilled"}
